Compiled IC50 measurements on NAMPT (Homo sapiens) taken from the literature.
READOUT KIND: IC50

| COMPOUND | MEASURED |
| --- | --- |
| CCCCC(=O)N1CCC(c2ccc(NC(=O)C3CN(c4cccnn4)C3)cc2)CC1 | 0.716 nM |
| CC[C@H](C)C(=O)N1CCC(Oc2ccc(NC(=O)C3CN(c4ccnnc4)C3)cc2)CC1 | 15.9 nM |
| CC(C)(C)OC(=O)N1CC=C(c2ccc(CC(=O)Nc3ccc4nccn4c3)cc2)CC1 | 0.581 nM |
| O=C(NCc1ccn2ccnc2c1)c1ccc(C2CCN(C(=O)c3ccccn3)C2)s1 (stereo not drawn) | 0.46 nM |
| COc1ccncc1N1CC(C(=O)Nc2ccc(C3CCN(C(=O)C(C)(C)O)CC3)cc2)C1 | 282 nM |
| [2H][C@@H](C(=O)NCCCCCC(=O)N1c2ccccc2[Si](CC)(CC)C1C)[C@@H]([2H])c1cccnc1 (stereo partly drawn) | 668 nM |
| O=C(NCc1ccn2ccnc2c1)c1ccc(-c2cnn(CCO)c2)s1 | 0.282 nM |
| O=C(NCc1ccn2ccnc2c1)Nc1ccc(C2CCN(C(=O)C3CCOCC3)C2)cc1 (stereo not drawn) | 0.617 nM |
| O=C(NCc1ccn2ccnc2c1)c1ccc(-c2cnn(CC3CCOC3)c2)o1 (stereo not drawn) | 0.24 nM |
| O=C(Nc1ccc(C2CCN(C(=O)c3ccco3)CC2)cc1)C1CN(c2cccnc2)C1 | 0.367 nM |
| COc1ccccc1C(=O)N1CCC(c2ccc(NC(=O)C3CN(c4cccnn4)C3)cc2)CC1 | 0.392 nM |
| O=C(NCCCCC1CCN(C(=O)CN2CCOCC2)CC1)Nc1ccc2nccn2c1 | 0.348 nM |
| O=C(Nc1ccc(OC2CCN(C(=O)C3CCCO3)CC2)cc1)C1CN(c2cccnn2)C1 (stereo not drawn) | 0.576 nM |
| O=C(NCc1ccn2ccnc2c1)c1ccc(OC2CCN(C(=O)[C@@H]3CCCO3)CC2)cc1 | 0.197 nM |
| CC(C)CC(=O)N1CC=C(c2ccc(C(=O)NCc3ccn4ccnc4c3)o2)CC1 | 0.783 nM |
| O=C(NCc1ccn2ccnc2c1)c1ccc(C2CCN(C(=O)C3COCCO3)C2)cc1 (stereo not drawn) | 0.275 nM |
| Cn1ccc(C(=O)N2CCC(c3ccc(C(=O)NCc4ccn5ccnc5c4)cc3)C2)n1 (stereo not drawn) | 0.544 nM |
| O=C(NCc1ccn2ccnc2c1)c1ccc(-c2cnn(CC3CCOC3)c2)s1 (stereo not drawn) | 0.274 nM |
| O=C(NCc1cccnc1)c1ccc2nc(-c3ccccc3)c(-c3ccccc3)nc2c1 | < 1000 nM |
| CC(C)(C)OC(=O)N1CCC(c2ccc(NC(=O)NCc3ccn4ncnc4c3)cc2)CC1 | 5.38 nM |
| [2H][C@@H](C(=O)NCCCCCC(=O)N1C[Si](C)(C)c2ccccc21)[C@@H]([2H])c1cccnc1 | 2310 nM |
| O=C(NCc1ccn2ccnc2c1)c1ccc(C2CCN(C(=O)c3cccc(C(F)(F)F)c3)C2)cc1 (stereo not drawn) | 1 nM |
| O=C(NCc1ccn2ccnc2c1)c1cnc(N(C[C@H]2CCCO2)C(=O)CCc2ccno2)s1 | 0.24 nM |
| CCCC(=O)N1CCC(c2ccc(NC(=O)C3CN(c4cccnc4C)C3)cc2)CC1 | 62.6 nM |
| O=C(Nc1ccc(OC2CCN(C(=O)c3cccc(OC(F)(F)F)c3)CC2)cc1)C1CN(c2cccnn2)C1 | 1.39 nM |
| O=C(Nc1ccc(C2CCN(C(=O)c3ccsc3)CC2)cc1)C1CN(c2cccnc2)C1 | 0.398 nM |
| CCCn1cc(-c2ccc(NC(=O)NCc3ccn4ccnc4c3)cc2)cn1 | 0.334 nM |
| COCCC(=O)N(CCCNC(C)=O)c1ncc(C(=O)NCCCn2ccnc2)s1 | 0.457 nM |
| O=C(CC1CCOCC1)Nc1ccc(C(=O)NCc2ccn3ccnc3c2)cc1 | 0.169 nM |
| Nc1ccc(CNC(=O)Nc2cnc3nc(-c4ccc(F)cc4)c(-c4ccc(F)cc4)nc3c2)cn1 | < 1000 nM |
| O=C(NCc1ccn2ccnc2c1)Nc1ccc(O[C@@H]2CCN(C(=O)c3cc(F)cc(F)c3)C2)cc1 | 1.12 nM |
| N#Cc1ccc(CN(C(=O)NCCCN2CC(O)C2)c2ncc(C(=O)NCCCn3ccnc3)s2)cc1 | 94.2 nM |
| N#Cc1ccc(CN(C(=O)NCCCCO)c2ncc(C(=O)NCCCn3ccnc3)s2)cc1 | 1.02 nM |
